target_under_test: D(3) dopamine receptor (Homo sapiens, UniProt P35462)
Sequence (P35462 whole entry): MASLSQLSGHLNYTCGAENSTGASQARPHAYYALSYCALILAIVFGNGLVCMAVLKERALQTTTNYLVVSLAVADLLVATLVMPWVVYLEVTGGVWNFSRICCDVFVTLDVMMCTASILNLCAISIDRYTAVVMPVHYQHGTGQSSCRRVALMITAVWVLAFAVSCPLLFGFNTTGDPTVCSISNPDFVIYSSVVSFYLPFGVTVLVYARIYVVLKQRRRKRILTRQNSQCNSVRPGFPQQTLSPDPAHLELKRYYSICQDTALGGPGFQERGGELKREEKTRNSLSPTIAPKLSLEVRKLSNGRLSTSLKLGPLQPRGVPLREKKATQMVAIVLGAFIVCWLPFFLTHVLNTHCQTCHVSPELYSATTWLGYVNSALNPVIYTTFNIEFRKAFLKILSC
protocol_description: DRUGMATRIX: Dopamine D3 radioligand binding (ligand: [3H] Spiperone)
Format: cell membranes, CHO, Membrane
particulars: cho; read-out: Ki
measured_endpoint: pKi
Quick note: pKi values are minus log10 of concentrations in mol/L.

State pKi on D(3) dopamine receptor (Homo sapiens, UniProt P35462). Entry: AURANOFIN
6.65

###

target_under_test: Cytochrome P450 2E1 (Homo sapiens, UniProt P05181); further: in other assays of this panel Not Active means under 50% inhibition at 10 µM
Sequence (P05181 whole entry): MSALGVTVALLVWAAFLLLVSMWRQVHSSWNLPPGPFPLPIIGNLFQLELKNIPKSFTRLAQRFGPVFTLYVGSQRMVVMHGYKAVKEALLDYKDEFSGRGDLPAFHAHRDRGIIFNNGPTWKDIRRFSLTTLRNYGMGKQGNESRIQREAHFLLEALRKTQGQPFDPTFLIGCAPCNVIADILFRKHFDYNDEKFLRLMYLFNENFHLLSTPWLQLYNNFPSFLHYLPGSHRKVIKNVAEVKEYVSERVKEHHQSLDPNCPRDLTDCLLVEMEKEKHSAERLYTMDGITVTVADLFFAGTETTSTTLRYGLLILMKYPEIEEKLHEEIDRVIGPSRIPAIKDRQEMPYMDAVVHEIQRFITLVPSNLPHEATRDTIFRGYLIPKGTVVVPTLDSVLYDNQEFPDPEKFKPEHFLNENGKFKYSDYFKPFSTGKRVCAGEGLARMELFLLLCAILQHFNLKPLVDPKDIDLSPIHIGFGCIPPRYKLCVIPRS
particulars: bti-tn-5b1-4

molecule | target_under_test | Ki
CNCCC(Oc1ccc(C(F)(F)F)cc1)c1ccccc1 (stereo not drawn) [FLUOXETINE] | Cytochrome P450 2E1 (Homo sapiens, UniProt P05181) | Not Active
O=c1cnn([C@@H]2O[C@H](CO)[C@@H](O)[C@H]2O)c(=O)[nH]1 [6-AZAURIDINE] | Cytochrome P450 2E1 (Homo sapiens, UniProt P05181) | Not Active
CC(=O)O[C@H]1C(=O)[C@@]2(C)[C@H]([C@H](OC(=O)c3ccccc3)[C@]3(O)C[C@H](OC(=O)[C@H](O)[C@@H](NC(=O)c4ccccc4)c4ccccc4)C(C)=C1C3(C)C)[C@]1(OC(C)=O)CO[C@@H]1C[C@@H]2O [PACLITAXEL] | Cytochrome P450 2E1 (Homo sapiens, UniProt P05181) | Not Active

###

target_under_test: UniProtKB Q01959
Sequence (Q01959 whole entry): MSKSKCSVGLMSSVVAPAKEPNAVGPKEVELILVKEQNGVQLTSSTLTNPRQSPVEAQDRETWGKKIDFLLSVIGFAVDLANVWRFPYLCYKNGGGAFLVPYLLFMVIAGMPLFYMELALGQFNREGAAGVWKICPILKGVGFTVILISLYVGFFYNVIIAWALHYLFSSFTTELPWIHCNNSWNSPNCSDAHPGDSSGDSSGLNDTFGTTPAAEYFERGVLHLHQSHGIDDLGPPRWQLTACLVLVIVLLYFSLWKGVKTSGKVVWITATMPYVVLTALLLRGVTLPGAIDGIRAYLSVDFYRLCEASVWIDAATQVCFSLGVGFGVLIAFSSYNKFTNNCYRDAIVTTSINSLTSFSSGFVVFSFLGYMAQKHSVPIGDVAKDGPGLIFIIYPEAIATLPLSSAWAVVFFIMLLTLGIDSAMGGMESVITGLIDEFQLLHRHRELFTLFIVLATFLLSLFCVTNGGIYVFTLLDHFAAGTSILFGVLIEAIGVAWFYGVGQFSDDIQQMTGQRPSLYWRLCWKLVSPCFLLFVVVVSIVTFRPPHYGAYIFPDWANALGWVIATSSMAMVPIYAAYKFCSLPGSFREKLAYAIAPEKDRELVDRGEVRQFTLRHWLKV
protocol_description: DRUGMATRIX: Dopamine Transporter radioligand binding (ligand: [125I] RTI-55)
Assay type: cell membranes, CHO-K1, Membrane
particulars: Not Active = under 50% inhibition at 10 µM; read-out: Ki
measured_endpoint: log10 of Ki (log10 of the value in µM)
Kindly note that the scale is log10 and the underlying Ki is in µM.

Consider the worked cases shown below.
compound | log10 of Ki
CN(C)CC[C@@H](c1ccc(Cl)cc1)c1ccccn1 [DEXCHLORPHENIRAMINE] | -0.13
CC(=O)[C@@]1(O)CC[C@H]2[C@@H]3CCC4=CC(=O)CC[C@]4(C)[C@H]3CC[C@@]21C [HYDROXYPROGESTERONE] | 0.74
Fc1ccc(C(c2ccc(F)cc2)N2CCN(C/C=C/c3ccccc3)CC2)cc1 [FLUNARIZINE] | -0.33
COC(=O)Nc1nc2ccc(C(=O)c3cccs3)cc2[nH]1 [NOCODAZOLE] | 0.69

// moving on: another record for log10 of Ki
Report its log10 of Ki with UniProtKB Q01959 as the test system: Cc1c(C)c2c(c(C)c1O)CCC(C)(CN1CCN(c3cc(N4CCCC4)nc(N4CCCC4)n3)CC1)O2 (stereo not given)
1.03

###

target_under_test: 5-hydroxytryptamine receptor 6 (Homo sapiens); further: in other assays of this panel Not Active means under 50% inhibition at 10 µM
Sequence (P50406 whole entry): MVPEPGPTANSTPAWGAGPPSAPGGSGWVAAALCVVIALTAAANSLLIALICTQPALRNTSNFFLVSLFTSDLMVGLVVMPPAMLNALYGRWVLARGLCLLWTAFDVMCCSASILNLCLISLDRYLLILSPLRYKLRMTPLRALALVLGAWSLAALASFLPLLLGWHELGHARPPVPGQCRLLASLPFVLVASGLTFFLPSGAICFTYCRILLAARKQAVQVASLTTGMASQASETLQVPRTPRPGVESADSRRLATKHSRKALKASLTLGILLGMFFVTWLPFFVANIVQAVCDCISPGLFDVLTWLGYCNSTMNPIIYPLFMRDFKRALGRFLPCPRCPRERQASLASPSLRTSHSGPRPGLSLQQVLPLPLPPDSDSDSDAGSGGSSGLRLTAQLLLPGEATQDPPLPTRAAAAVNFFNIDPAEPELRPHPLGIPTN
Format: cell membranes, HeLa, Membrane
particulars: read-out: Ki
Listing of entries alongside the reported pKi.
Keep in mind that pKi stands for -log10 of concentration in molar terms.

molecule | experimental_result
Clc1ccc(COC(Cn2ccnc2)c2ccc(Cl)cc2Cl)cc1 (stereo not given) [ECONAZOLE] | 5.30
CCCNCC(O)COc1ccccc1C(=O)CCc1ccccc1 (stereo not given) [PROPAFENONE] | 6.06
C[C@@H](CO)NC(=O)[C@@H]1C=C2c3cccc4[nH]cc(c34)C[C@H]2N(C)C1 [ERGONOVINE] | 8.82
CCN(CC)CCOc1ccc(/C(=C(/Cl)c2ccccc2)c2ccccc2)cc1 [ENCLOMIPHENE] | 6.15

Alright, here's another molecule for you.
Respond only with pKi recorded for CO[C@@H]1[C@@H](OC)[C@H](C)[C@@](O)(CC(=O)O)O[C@H]1[C@H](C)[C@H]1O[C@@]2(CC[C@@](C)([C@H]3CC[C@@](C)([C@@H]4O[C@@H]([C@H]5O[C@](C)(O)[C@H](C)C[C@@H]5C)C[C@@H]4O[C@@H]4C[C@H](OC)[C@@H](OC)[C@H](C)O4)O3)O2)C[C@H](O)[C@H]1C [MADURAMICIN ACID]
9.10

Reference source for all entries: ChEMBL document CHEMBL1909046
